# Tested on: SN12C renal
# method description: NCI tumour cell line growth inhibition, 48 h
Use fulfilled when the recorded TGI is no lower than 40 µM; use not fulfilled when it is lower.

Q: Say whether "CCc1c2c(nc3cccc(N)c13)-c1cc3c(c(=O)n1C2)COC(=O)[C@]3(O)CC" shows TGI of 40 µM or more.
Ans: not fulfilled

Q: Say whether "O=C(O)c1cc2c(s1)C(=O)c1sccc1C2=O" shows TGI of 40 µM or more.
Ans: not fulfilled

Q: Say whether "CC(C)(Br)C(=O)/C=C/c1ccccc1" shows TGI of 40 µM or more.
Ans: not fulfilled

Q: Say whether CCN1C(=O)N(CC)C2C1NN=c1s/c(=C3\C(=O)N(C)c4ccccc43)c(=O)n12 (configuration not stated) shows TGI of 40 µM or more.
Ans: fulfilled

Q: Say whether "NCCCc1ccc2oc3ccccc3c2c1" shows TGI of 40 µM or more.
Ans: not fulfilled

Q: Say whether "O=[N+]([O-])/C(C(Cl)=C(Cl)Cl)=C1/OCCS1" shows TGI of 40 µM or more.
Ans: fulfilled

Q: Say whether "CN(N)/N=N/c1nc[nH]c1C(N)=O" shows TGI of 40 µM or more.
Ans: fulfilled

###

What TGI was measured for each of the following?
# System: NCI-H23 lung
# method description: NCI tumour cell line growth inhibition, 48 h

Q: Consider the compound "CC(C)=CC(=O)CC(=O)C(=O)Nc1ccc(Cl)c(Cl)c1" tested on NCI-H23 lung; state its TGI.
Ans: > 100 µM

Q: Consider the compound Cc1cccc(C)c1NC(=O)CCCC(=O)C1CCC/C1=N\NC(=O)C(=O)NN (stereo not given) tested on NCI-H23 lung; state its TGI.
Ans: > 100 µM

Q: Consider the compound CC(=O)O[C@]12CCC[C@H]1C1(O)C(O)CCC[C@H]12 (stereo not given in full) tested on NCI-H23 lung; state its TGI.
Ans: > 100 µM

Q: Consider the compound C=C(C)CCC(C)N1CCC(N2CCC(C(=O)NCCc3ccccc3)CC2)CC1 (stereo not given) tested on NCI-H23 lung; state its TGI.
Ans: > 100 µM

Q: Consider the compound "O=C(Nc1ccc2c(c1)oc(=O)c1ccccc12)C(Cl)Cl" tested on NCI-H23 lung; state its TGI.
Ans: > 100 µM

Q: Consider the compound "Nc1nc(Nc2cccc(F)c2)nc2ccccc12" tested on NCI-H23 lung; state its TGI.
Ans: > 100 µM

Q: Consider the compound "Cc1cn2c(/C=N/N/C(N)=N\N)c(-c3ccc(Cl)c([N+](=O)[O-])c3)nc2s1" tested on NCI-H23 lung; state its TGI.
Ans: 20 µM

Q: Consider the compound O=C1C(=O)N(C2C3CC4CC(C3)CC2C4)C(=O)C(=O)C1c1nc2ccccc2o1 (stereo not given) tested on NCI-H23 lung; state its TGI.
Ans: > 100 µM

Q: Consider the compound CCOC(=O)N1C2C=C(C)C(C3C(C)C(=O)N31)N(C(=O)c1ccccc1)O2 (stereo not given) tested on NCI-H23 lung; state its TGI.
Ans: > 100 µM

Q: Consider the compound "CN(C)CCNC(=O)c1ccc(Cl)c2c(Nc3ccc(S(N)(=O)=O)cc3)c3ccccc3nc12" tested on NCI-H23 lung; state its TGI.
Ans: 11.6 µM

Just for reference, PubChem BioAssay (NCI) is where these values come from.
